- MEASURED_TARGET: Delta-type opioid receptor (Homo sapiens)
- Sequence (P41143 whole entry): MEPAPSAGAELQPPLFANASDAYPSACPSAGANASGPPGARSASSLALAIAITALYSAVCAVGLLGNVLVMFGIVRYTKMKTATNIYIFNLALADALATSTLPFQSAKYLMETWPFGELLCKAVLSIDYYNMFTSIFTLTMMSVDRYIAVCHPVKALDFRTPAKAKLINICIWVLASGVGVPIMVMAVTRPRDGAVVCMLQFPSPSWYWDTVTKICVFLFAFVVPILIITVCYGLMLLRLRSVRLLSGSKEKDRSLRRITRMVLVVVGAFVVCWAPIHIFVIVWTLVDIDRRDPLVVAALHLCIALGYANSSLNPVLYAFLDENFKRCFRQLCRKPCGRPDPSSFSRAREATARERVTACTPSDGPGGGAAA
- EXPERIMENT_DESCRIPTION: Binding affinity for Opioid receptor delta 1 was determined
pKi: −log10 of the molar value.
Here, each record is paired with measured pKi data.
QUANTITY: pKi

COMPOUND	MEASURED_TARGET	RESULT_NUMBER
C[C@@]12CCCCS[C@@H](Cc3ccc(O)cc31)C2N (some centres undefined)	Delta-type opioid receptor (Homo sapiens)	6.38
CO[C@@H]1Cc2ccc(O)cc2C(C)(C)[C@@H]1N	Delta-type opioid receptor (Homo sapiens)	5.28
CS[C@@H]1Cc2ccc(O)cc2C(C)(C)[C@@H]1N	Delta-type opioid receptor (Homo sapiens)	6.46
CC[C@@H]1Cc2ccc(O)cc2C(C)(C)[C@@H]1N	Delta-type opioid receptor (Homo sapiens)	5.35

----------
Observed pKi, system UniProt:P35372.
pKi: −log10 of the molar value.

COMPOUND	pKi
CC[C@H]1Cc2ccc(O)cc2C(C)(C)[C@@H]1N	6.87
C[C@@]12CCCCS[C@@H](Cc3ccc(O)cc31)C2N (some centres undefined)	9.10
CC1(C)c2cc(O)ccc2C[C@@H](S(C)(=O)=O)[C@H]1N	5.94
CC1(C)c2cc(O)ccc2C[C@@H](O)[C@H]1N	6.69

----------
- MEASURED_TARGET: Mu-type opioid receptor (Homo sapiens, UniProt P35372)
- Sequence (P35372 whole entry): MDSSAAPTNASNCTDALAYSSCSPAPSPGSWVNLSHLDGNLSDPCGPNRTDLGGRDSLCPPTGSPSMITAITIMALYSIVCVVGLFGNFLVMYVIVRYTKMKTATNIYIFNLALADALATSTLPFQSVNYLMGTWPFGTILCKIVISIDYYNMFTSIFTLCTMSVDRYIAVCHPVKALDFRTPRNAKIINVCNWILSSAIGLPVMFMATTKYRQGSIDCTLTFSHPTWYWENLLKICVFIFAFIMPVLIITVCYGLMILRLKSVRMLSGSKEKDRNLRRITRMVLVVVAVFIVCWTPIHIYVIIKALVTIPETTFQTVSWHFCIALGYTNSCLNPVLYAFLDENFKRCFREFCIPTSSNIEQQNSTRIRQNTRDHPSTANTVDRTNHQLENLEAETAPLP
Note to self: use 1 only for Ki readings below 20 nM; a reading exactly at 20 nM still gets 0.

COMPOUND	CLASS_NAME
C[S+]([O-])[C@@H]1Cc2ccc(O)cc2C(C)(C)[C@@H]1N (stereo in doubt; 18A)	0
CC1(C)c2cc(O)ccc2C[C@@H](S)[C@H]1N	0
CC[C@@H]1Cc2ccc(O)cc2C(C)(C)[C@@H]1N	0
C[S+]([O-])[C@@H]1Cc2ccc(O)cc2C(C)(C)[C@@H]1N (stereo in doubt; 18B)	0
CO[C@@H]1Cc2ccc(O)cc2C(C)(C)[C@@H]1N	1

----------
Observed Ki, system Kappa-type opioid receptor (Homo sapiens, UniProt P41145).

COMPOUND	VALUE_UNIT	Ki
CS[C@@H]1Cc2ccc(O)cc2C(C)(C)[C@@H]1N	nM	66
CO[C@@H]1Cc2ccc(O)cc2C(C)(C)[C@@H]1N	nM	184
C[C@@]12CCCCS[C@@H](Cc3ccc(O)cc31)C2N (some centres undefined)	nM	43.4
CC[C@@H]1Cc2ccc(O)cc2C(C)(C)[C@@H]1N	nM	345
